- Experimental target: FYN (human) (UniProt P06241)
- Sequence (P06241 whole entry, looked up): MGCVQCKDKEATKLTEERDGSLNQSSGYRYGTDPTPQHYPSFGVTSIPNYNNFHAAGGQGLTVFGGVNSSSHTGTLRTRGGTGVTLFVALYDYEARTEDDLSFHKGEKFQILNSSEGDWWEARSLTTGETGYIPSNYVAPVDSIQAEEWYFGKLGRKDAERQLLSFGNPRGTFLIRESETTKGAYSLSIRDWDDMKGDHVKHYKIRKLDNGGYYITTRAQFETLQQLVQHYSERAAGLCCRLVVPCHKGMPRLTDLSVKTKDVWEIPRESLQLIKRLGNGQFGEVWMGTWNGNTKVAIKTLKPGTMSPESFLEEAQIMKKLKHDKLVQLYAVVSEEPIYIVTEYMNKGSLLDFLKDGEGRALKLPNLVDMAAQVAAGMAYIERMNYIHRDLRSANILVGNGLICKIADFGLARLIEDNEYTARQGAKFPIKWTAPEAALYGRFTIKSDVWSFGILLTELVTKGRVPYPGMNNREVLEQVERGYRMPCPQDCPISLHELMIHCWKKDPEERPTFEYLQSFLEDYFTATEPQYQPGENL
- Assay explanation: KINOMEscan competition binding
- Condition parameters: compound 10.0 µM

Smiles record	kinase still bound, per cent of control / %
CN1C(=O)c2ccccc2N(C)c2nc(Nc3ccc(N4CCC(O)CC4)cc3)ncc21	35
COc1cc(N2CCC(O)CC2)ccc1Nc1ncc2c(n1)N1CCc3cccc(c31)C(=O)N2C	100
COc1cc(N2CCN(C)CC2)ccc1Nc1ncc2c(n1)N(C)c1ccccc1N(C)C2=O	100
COc1cc(N2CCN(C)CC2)ccc1Nc1ncc2c(n1)N(C)c1sccc1C(=O)N2C	86
COc1cc(N2CCN(C)CC2)ccc1Nc1ncc2c(n1)Nc1ccccc1NC2=O	98

====

- Experimental target: UniProt:P68400
- Sequence (P68400 whole entry, looked up): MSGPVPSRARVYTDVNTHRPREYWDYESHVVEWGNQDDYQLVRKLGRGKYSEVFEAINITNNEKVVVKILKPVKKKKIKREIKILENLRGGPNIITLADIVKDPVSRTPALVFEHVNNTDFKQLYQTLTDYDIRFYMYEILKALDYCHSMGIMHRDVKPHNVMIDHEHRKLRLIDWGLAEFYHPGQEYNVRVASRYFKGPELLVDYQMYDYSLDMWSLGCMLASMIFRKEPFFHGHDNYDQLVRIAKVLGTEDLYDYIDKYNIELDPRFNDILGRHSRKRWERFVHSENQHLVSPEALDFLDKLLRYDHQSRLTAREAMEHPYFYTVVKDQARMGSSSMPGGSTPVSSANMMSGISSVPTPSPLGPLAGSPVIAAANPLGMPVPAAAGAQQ
- Assay explanation: KINOMEscan competition binding
- Condition parameters: compound 10.0 µM

Compound	Value units	kinase still bound, per cent of control
O=C1NC(=O)/C(=C/c2ccc(-c3ccc4c(C(=O)Nc5cccc(C(F)(F)F)c5)cccc4c3)o2)S1	%	33
CSC1=NC(=O)/C(=C/c2c[nH]c(=O)c(-c3ccc(NS(C)(=O)=O)cc3)c2)S1	%	1.6
O=C1NC(=O)/C(=C/c2ccc(-c3ccc(F)cc3O)o2)S1	%	4.4
O=C1NC(=S)S/C1=C\c1ccc(-c2cncc3ccccc23)o1	%	3.2
Nc1cccc(-c2cc(/C=C3\SC(=O)NC3=O)c[nH]c2=O)c1	%	17
NS(=O)(=O)c1ccc(-c2ccc(/C=C3\SC(=O)NC3=O)o2)cc1	%	18
O=C1NC(=O)/C(=C/c2c[nH]c(=O)c(-c3ccc(C(=O)Nc4ccc(N5CCNCC5)cc4)cc3)c2)S1	%	24
CC(=O)Nc1ccc(-c2ccc(/C=C3\SC(=N)NC3=O)o2)c(O)c1	%	32
CN1CCN(c2ccc(C(=O)Nc3ncc4c(n3)N(C)c3ccccc3C(=O)N4C)cc2)CC1	%	100
CN1C(=O)c2ccccc2N(C)c2nc(NS(=O)(=O)c3ccc(N)cc3)ncc21	%	100
COc1cc(N2CCN(C)CC2)ccc1Nc1ncc2c(n1)N(C)c1ccccc1N(C)C2=O	%	88
N=C1NC(=O)/C(=C/c2ccc(-c3ccc(C(N)=O)cc3O)o2)S1	%	5.8
CS(=O)C1=NC(=O)/C(=C/c2ccc(-c3ccc(S(N)(=O)=O)cc3)o2)S1 (stereo unspecified)	%	15
COc1cc(N2CCN(C)CC2)ccc1Nc1ncc2c(n1)N(C)c1sccc1C(=O)N2C	%	82
COc1cc(N2CCN(C)CC2)ccc1Nc1ncc2c(n1)Nc1ccccc1NC2=O	%	76
N=C1NC(=O)/C(=C/c2ccc(-c3csc4ccccc34)o2)S1	%	12
COc1cc(C(N)=O)ccc1-c1ccc(/C=C2\SC(=N)NC2=O)o1	%	18
N=C1NC(=O)/C(=C/c2ccc(-c3cccc4cc[nH]c34)o2)S1	%	26
N=C1NC(=O)/C(=C/c2c[nH]c(=O)c(-c3ccc(S(N)(=O)=O)cc3)c2)S1	%	26
CCN1CCN(Cc2cc(NC(=O)c3cccc4cc(-c5ccc(/C=C6\SC(=O)NC6=O)o5)ccc34)cc(C(F)(F)F)c2)CC1	%	4.6
N=C1NC(=O)/C(=C/c2ccc(-c3ccccc3O)o2)S1	%	9.9

====

- Experimental target: ULK2 (human)
- Assay explanation: KINOMEscan competition binding
- Condition parameters: compound 10.0 µM
Threshold 8%. kinase still bound, per cent of control below it: criterion met. kinase still bound, per cent of control at it or above: criterion not met.

Compound	Label value
COc1cc(N2CCN(C)CC2)ccc1Nc1ncc2c(n1)N(C)c1ccccc1C(=O)N2C	criterion met
COc1cc(N2CCC(O)CC2)ccc1Nc1ncc2c(n1)N(C)c1ccccc1C(=O)N2C	criterion not met
COc1cc(N2CCC(C)(O)CC2)ccc1Nc1ncc2c(n1)N(C1CCCC1)CCC(=O)N2C	criterion not met
COc1cc(N2CCN(C)CC2)ccc1Nc1ncc2c(n1)N(C1CCCC1)C(C)CC(=O)N2 (configuration not stated)	criterion met
CS(=O)(=O)Nc1ccc(-c2ncc(/C=C3\SC(=N)NC3=O)s2)cc1	criterion not met
COc1cc(N2CCN(C)CC2)ccc1Nc1ncc2c(n1)N(C)c1ccccc1N(C)C2=O	criterion not met
COc1cc(N2CCN(C)CC2)ccc1Nc1ncc2c(n1)N1CCC[C@H]1CC(=O)N2C	criterion not met

====

- Experimental target: EPHA1 (human)
- Assay explanation: KINOMEscan competition binding
- Condition parameters: compound 10.0 µM
kinase still bound, per cent of control reference
Test readout: kinase still bound, per cent of control (%)

Smiles record	Test readout	Value
CN1C(=O)c2ccccc2N(C)c2nc(NS(=O)(=O)c3ccc(N)cc3)ncc21	kinase still bound, per cent of control	100
COc1cc(N2CCN(C)CC2)ccc1Nc1ncc2c(n1)N(C)c1sccc1C(=O)N2C	kinase still bound, per cent of control	87
CN1CCN(c2ccc(C(=O)Nc3ncc4c(n3)N(C)c3ccccc3C(=O)N4C)cc2)CC1	kinase still bound, per cent of control	100
CN1C(=O)c2ccccc2N(C)c2nc(Nc3ccc(N4CCC(O)CC4)cc3)ncc21	kinase still bound, per cent of control	100

====

kinase still bound, per cent of control reference
- Experimental target: MAP3K9 (human) (UniProt P80192)
- Sequence (P80192 whole entry, looked up): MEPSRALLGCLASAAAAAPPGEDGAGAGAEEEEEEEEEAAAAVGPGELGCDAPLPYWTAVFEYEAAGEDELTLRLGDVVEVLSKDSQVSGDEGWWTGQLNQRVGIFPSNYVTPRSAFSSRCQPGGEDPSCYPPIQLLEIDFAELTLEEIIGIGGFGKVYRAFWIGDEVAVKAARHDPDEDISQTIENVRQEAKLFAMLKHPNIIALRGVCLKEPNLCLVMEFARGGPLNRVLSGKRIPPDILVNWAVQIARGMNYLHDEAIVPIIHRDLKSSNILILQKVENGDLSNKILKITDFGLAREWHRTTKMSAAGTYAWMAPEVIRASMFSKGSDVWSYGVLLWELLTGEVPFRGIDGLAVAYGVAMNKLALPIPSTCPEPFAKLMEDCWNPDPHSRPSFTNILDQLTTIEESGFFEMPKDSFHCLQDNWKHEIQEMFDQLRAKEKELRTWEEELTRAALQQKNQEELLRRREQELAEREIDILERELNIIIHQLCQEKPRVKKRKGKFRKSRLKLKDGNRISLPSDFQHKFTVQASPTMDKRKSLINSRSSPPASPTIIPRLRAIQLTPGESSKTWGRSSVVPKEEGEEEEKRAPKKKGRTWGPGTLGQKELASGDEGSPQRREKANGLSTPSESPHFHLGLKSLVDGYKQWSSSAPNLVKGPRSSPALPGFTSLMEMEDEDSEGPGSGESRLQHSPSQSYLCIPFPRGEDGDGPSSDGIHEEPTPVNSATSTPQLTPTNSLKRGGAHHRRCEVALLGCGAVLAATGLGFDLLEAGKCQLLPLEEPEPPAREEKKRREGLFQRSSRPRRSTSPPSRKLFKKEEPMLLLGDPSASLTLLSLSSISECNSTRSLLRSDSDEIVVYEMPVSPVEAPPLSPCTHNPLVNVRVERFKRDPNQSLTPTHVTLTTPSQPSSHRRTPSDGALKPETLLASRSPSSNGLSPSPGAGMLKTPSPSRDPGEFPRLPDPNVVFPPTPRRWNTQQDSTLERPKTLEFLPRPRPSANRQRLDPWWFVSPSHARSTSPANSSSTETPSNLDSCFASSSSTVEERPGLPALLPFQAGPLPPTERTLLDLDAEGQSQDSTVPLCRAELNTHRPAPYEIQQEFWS
- Assay explanation: KINOMEscan competition binding
- Condition parameters: compound 10.0 µM
Test readout: kinase still bound, per cent of control (%)

Smiles record	Value
O=C1NC(=O)/C(=C/c2c[nH]c(=O)c(-c3ccc(N4CCNCC4)nc3)c2)S1	94
COc1cc(N2CCN(C)CC2)ccc1Nc1ncc2c(n1)N(C)c1ccccc1N(C)C2=O	100
COc1cc(N2CCN(C)CC2)ccc1Nc1ncc2c(n1)N(C)c1sccc1C(=O)N2C	100
CN1C(=O)c2ccccc2N(C)c2nc(Nc3ccc(N4CCC(O)CC4)cc3)ncc21	91

====

- Experimental target: UniProtKB P37173
- Sequence (P37173 whole entry, looked up): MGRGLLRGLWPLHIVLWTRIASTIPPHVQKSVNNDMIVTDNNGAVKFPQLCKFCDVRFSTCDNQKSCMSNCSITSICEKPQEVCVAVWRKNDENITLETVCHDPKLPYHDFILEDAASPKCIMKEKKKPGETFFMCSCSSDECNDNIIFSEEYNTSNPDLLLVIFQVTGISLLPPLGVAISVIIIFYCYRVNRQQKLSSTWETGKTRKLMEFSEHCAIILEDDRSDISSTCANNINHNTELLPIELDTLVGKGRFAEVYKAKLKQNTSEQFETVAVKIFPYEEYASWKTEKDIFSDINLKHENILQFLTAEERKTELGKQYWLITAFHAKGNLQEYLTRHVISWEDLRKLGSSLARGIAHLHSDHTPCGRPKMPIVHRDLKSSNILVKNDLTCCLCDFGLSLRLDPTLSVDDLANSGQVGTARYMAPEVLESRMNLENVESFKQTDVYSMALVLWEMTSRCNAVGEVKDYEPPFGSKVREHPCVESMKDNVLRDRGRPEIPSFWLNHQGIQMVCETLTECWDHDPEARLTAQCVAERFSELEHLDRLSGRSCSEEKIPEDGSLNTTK
- Assay explanation: KINOMEscan competition binding
- Condition parameters: compound 10.0 µM
kinase still bound, per cent of control reference

Smiles record	Value units	kinase still bound, per cent of control
COc1cc(N2CCN(C)CC2)ccc1Nc1ncc2c(n1)Nc1ccccc1NC2=O	%	32
N=C1NC(=O)/C(=C/c2ccc(-c3ccc(F)cc3O)o2)S1	%	5
CS(=O)(=O)Nc1ccc(-c2ccc(/C=C3\SC(=N)NC3=O)o2)cc1	%	2.8
CN1C(=O)c2ccccc2N(C)c2nc(NS(=O)(=O)c3ccc(N)cc3)ncc21	%	100
CSC1=NC(=O)/C(=C/c2c[nH]c(=O)c(-c3ccc(NS(C)(=O)=O)cc3)c2)S1	%	14

====

- Experimental target: PAK2 (human) (UniProt Q13177)
- Sequence (Q13177 whole entry, looked up): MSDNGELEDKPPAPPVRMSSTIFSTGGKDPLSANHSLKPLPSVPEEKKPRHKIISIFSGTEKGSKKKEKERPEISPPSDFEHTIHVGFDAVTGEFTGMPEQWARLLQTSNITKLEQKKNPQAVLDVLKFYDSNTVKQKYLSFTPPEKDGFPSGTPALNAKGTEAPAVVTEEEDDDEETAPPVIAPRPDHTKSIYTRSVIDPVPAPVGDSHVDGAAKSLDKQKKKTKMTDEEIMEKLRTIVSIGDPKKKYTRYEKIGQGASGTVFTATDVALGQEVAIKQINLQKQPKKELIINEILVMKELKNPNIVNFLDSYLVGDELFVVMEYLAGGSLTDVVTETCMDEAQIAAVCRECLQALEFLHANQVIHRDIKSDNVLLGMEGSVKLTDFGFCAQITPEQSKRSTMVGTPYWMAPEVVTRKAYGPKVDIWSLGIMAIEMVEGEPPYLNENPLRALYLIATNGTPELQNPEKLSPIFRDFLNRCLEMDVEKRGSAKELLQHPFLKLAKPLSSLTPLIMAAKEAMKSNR
- Assay explanation: KINOMEscan competition binding
- Condition parameters: compound 10.0 µM
kinase still bound, per cent of control reference
Test readout: kinase still bound, per cent of control

Smiles record	Experimental target	Value
O=C1NC(=S)S/C1=C\c1ccc(-c2cncc3ccccc23)o1	PAK2 (human) (UniProt Q13177)	31%
COc1cc(N2CCC(O)CC2)ccc1Nc1ncc2c(n1)N1CCc3cccc(c31)C(=O)N2C	PAK2 (human) (UniProt Q13177)	67%
CN1C(=O)c2ccccc2N(C)c2nc(Nc3ccc(N4CCC(O)CC4)cc3)ncc21	PAK2 (human) (UniProt Q13177)	81%
CSC1=NC(=O)/C(=C/c2ccc(-c3ccc(S(N)(=O)=O)cc3)o2)S1	PAK2 (human) (UniProt Q13177)	34%
N=C1NC(=O)/C(=C/c2ccc(-c3cccc4cc[nH]c34)o2)S1	PAK2 (human) (UniProt Q13177)	32%
COc1cc(N2CCN(C)CC2)ccc1Nc1ncc2c(n1)N(C)c1sccc1C(=O)N2C	PAK2 (human) (UniProt Q13177)	71%
COc1cc(N2CCN(C)CC2)ccc1Nc1ncc2c(n1)Nc1ccccc1NC2=O	PAK2 (human) (UniProt Q13177)	80%

====

- Experimental target: EGFR (human) (UniProt P00533)
- Sequence (P00533 whole entry, looked up): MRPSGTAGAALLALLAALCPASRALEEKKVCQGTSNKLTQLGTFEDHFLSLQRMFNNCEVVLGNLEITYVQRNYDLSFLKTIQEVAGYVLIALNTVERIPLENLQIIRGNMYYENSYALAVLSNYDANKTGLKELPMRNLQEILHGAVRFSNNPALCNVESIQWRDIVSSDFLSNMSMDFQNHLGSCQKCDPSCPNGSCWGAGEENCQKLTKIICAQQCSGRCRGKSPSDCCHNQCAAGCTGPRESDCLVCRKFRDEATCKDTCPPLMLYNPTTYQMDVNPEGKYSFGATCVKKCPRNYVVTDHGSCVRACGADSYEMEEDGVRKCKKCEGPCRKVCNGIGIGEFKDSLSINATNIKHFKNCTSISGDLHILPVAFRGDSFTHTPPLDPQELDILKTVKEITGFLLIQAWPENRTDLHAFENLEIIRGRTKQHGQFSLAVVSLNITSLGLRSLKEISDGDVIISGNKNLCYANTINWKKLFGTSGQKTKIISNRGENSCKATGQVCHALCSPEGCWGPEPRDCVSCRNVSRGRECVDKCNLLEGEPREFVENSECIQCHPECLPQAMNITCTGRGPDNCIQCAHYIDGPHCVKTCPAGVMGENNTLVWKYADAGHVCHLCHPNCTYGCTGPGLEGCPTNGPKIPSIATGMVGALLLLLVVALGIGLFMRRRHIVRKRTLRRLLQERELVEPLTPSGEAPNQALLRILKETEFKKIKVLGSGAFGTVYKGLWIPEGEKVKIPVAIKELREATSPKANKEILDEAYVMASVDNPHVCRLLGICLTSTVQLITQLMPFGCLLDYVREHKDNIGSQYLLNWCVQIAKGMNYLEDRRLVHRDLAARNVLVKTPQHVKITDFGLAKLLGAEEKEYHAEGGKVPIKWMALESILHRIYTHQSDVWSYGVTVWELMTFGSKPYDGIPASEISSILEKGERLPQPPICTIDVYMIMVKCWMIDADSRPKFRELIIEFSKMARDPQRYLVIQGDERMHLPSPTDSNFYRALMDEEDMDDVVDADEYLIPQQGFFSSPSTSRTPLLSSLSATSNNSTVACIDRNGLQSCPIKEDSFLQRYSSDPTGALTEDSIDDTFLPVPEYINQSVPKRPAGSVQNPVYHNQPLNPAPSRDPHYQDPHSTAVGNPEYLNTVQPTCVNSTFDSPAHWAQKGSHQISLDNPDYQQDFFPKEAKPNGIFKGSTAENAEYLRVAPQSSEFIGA
- Assay explanation: KINOMEscan competition binding
- Condition parameters: compound 10.0 µM

Smiles record	Value units	kinase still bound, per cent of control
COc1cc(N2CCN(CCO)CC2)ccc1Nc1ncc2c(n1)N(C1CCCC1)CCC(=O)N2C	%	29
COc1cc(N2CCC(O)CC2)ccc1Nc1ncc2c(n1)N(c1ccccc1)CCC(=O)N2C	%	24
CN1C(=O)c2ccccc2N(C)c2nc(NS(=O)(=O)c3ccc(N)cc3)ncc21	%	100
CN1C(=O)c2ccccc2N(C)c2nc(Nc3ccc(N4CCC(O)CC4)cc3)ncc21	%	100

====

- Experimental target: BTK (human)
- Assay explanation: KINOMEscan competition binding
- Condition parameters: compound 10.0 µM

Smiles record	kinase still bound, per cent of control / %
N=C1NC(=O)/C(=C/c2ccc(-c3cccc4cc[nH]c34)o2)S1	18
COc1cc(N2CCC(O)CC2)ccc1Nc1ncc2c(n1)N1CCc3cccc(c31)C(=O)N2C	78
N=C1NC(=O)/C(=C/c2ccc(-c3cncc4ccccc34)o2)S1	31
COc1cc(N2CCN(C)CC2)ccc1Nc1ncc2c(n1)Nc1ccccc1NC2=O	23
COc1cc(N2CCN(C)CC2)ccc1Nc1ncc2c(n1)N(C)c1sccc1C(=O)N2C	82
